Every entry's value here was drawn from patent US20240016942A1.

DC50 reference
Biological target: STAT3 (Homo sapiens)
Construct: expressed in transfected cells; host or cells: A549
Sequence (P40763 whole entry): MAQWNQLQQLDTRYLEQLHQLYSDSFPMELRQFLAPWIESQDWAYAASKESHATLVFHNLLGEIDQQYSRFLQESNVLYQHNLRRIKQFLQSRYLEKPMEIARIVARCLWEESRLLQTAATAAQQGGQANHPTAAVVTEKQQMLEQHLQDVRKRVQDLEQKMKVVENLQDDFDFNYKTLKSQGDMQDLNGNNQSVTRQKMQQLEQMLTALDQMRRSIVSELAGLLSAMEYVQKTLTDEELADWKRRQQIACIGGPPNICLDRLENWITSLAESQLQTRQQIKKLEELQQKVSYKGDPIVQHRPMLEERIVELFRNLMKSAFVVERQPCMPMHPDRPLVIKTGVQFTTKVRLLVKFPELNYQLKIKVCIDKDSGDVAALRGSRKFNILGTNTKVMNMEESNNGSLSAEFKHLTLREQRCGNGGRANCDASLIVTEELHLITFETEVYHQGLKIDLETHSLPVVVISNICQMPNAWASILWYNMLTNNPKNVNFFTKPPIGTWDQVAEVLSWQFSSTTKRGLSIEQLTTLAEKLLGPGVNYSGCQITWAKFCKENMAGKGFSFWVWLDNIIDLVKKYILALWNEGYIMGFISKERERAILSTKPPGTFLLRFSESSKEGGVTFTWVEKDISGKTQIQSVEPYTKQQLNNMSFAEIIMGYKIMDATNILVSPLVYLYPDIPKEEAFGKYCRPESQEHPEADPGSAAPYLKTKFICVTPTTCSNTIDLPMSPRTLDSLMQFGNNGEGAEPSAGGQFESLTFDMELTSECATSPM
Assay: STAT3 HiBiT degradation assay (Nano-Glo HiBiT lytic detection) in transfected A549 cells
Type: cell-based
Conditions: 24 h compound incubation, read-out: STAT3 HiBIT A549 degradation 24 h: Average external-Abs DC50
Description: Example 1. HiBiT Assay Protocol Compound preparation and Cell seeding: The transfected A549 cells were harvested from dish into cell culture medium and cell numbers counted. […] Detection: Plates were removed from incubators and equilibrated at room temperature for 15 minutes. […] 30 μL of Nano-Glo Hibit Lytic Detection reagent was added into each well to be detected. The plates were held at room temperature for 10 min followed by reading on EnSpire. […]

compound	target.or.test.system	result.type	experimental.result
CC(=O)N1CC[C@H]2CC[C@@H](C(=O)N[C@@H](CCC(N)=O)COc3cccc(CCCCC(=O)N[C@H](C(=O)N4C[C@@H](O)C[C@H]4C(=O)N[C@@H](C)c4ccc(-c5scnc5C)cc4)C(C)(C)C)c3Cl)N2C(=O)[C@@H](NC(=O)c2cc3cc(C(=O)P(=O)(O)O)ccc3[nH]2)C1	STAT3 (Homo sapiens)	DC50	> 1 µM

Now for the compound whose DC50 we want.
**Query** Give the reported DC50 for C[C@@H](NC(=O)[C@H](CCC(N)=O)NC(=O)[C@@H]1CC[C@@H]2CCN(C(=O)C[C@H]3CC[C@@H](Cc4ccc5c(c4)n(C)c(=O)n5C4CCC(=O)NC4=O)CC3)C[C@H](NC(=O)c3cc4cc(C(=O)P(=O)(O)O)ccc4[nH]3)C(=O)N21)c1ccc(S(C)(=O)=O)cc1 (some centres unmarked) (system: STAT3 (Homo sapiens)).
**Result** 0.1 to 1 µM
